These measurements were taken from patent US20130136748A1.

# experimental_system: T1, hHER3 full length (human, UniProt P21860 20-1342)
# T1 construct: On transfected CHO, CHO HER2/HER3, CHO EGFR/HER3 or CHO Flp-In cells; endogenous HER3 of MCF-7 and MDA-MB468 cells in the signalling assays; also called human HER3
# test_summary: FACS, 400 nM, competitor 04C07-biotin
Quick rule for you: % competition at 10% or higher means TRUE, lower means FALSE.

05A09 (VHH) VHH: EVQLVESGGGLVQAGGSLRLSCAASGFTFDDYAIGWFRQAPGKEREGVSCISSSDGSTVYADSVKGRFTISSDNAKNTVYLQMNSLKPEDTAVYYCAAERRRGYSDLCRFYYGMDYWGKGTQVTVSS	FALSE

Q: Could you verify whether the entry 21F06 (VHH, c-myc, His6-tagged form as expressed; also called 21F6; HER3MS21F06) VHH: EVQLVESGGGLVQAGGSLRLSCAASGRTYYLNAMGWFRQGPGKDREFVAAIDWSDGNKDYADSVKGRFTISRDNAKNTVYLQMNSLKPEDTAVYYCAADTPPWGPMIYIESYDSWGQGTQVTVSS shows % competition of no less than 10%?
Ans: TRUE

Q: Then this binder: 18E08 (VHH) VHH: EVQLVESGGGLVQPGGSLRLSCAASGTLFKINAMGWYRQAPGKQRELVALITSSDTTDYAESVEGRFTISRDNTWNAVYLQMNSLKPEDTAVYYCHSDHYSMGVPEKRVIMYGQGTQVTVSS
Ans: FALSE

Q: Then this binder: 17C08 (VHH, also called 17C8) VHH: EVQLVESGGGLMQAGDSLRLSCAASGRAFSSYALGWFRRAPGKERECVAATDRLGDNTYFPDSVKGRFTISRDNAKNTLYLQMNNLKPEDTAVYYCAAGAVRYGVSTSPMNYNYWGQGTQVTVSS
Ans: FALSE

Q: Then this binder: 18F05 (VHH, also called 18F5) VHH: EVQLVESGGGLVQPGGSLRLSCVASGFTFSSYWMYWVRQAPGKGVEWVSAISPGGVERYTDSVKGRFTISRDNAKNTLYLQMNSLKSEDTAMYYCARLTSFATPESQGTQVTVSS
Ans: TRUE

Q: Then this binder: 04C07 (VHH, also called HER3MS04C07; HER3MS004C07) VHH: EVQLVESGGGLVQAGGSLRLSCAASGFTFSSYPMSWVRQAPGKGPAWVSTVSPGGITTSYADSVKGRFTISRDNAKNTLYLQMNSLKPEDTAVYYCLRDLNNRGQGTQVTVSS
Ans: TRUE

Q: Then this binder: 18G11 (VHH, c-myc, His6-tagged form as expressed; also called HER3MS18G11; HER3MS018G11) VHH: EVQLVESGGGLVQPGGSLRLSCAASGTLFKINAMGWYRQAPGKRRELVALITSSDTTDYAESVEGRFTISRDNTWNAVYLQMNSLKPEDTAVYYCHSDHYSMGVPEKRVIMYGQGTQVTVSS
Ans: FALSE

Q: Then this binder: 18B05 (VHH) VHH: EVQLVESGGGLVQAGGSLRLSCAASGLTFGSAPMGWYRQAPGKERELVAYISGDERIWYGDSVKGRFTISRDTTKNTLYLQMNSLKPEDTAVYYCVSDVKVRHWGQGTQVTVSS
Ans: TRUE
